# TARGET_UNDER_TEST: T1, human GIP receptor (human, UniProt P48546 22-466)
# T1 sequence (looked up): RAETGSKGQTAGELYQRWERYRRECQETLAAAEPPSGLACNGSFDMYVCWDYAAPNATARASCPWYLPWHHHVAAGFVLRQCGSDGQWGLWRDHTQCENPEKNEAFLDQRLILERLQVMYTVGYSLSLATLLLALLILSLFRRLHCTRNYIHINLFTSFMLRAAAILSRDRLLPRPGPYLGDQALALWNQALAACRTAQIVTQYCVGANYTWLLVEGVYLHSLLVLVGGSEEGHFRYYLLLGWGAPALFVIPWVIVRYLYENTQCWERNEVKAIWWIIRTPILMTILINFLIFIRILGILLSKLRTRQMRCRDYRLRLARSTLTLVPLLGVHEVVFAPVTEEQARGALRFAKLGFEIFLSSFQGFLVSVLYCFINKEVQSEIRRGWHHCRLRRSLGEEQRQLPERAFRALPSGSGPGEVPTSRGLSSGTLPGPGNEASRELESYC
# PROCEDURE_DETAILS: cell-based or functional assay
*1 amine or outer side, *2 acyl side, *3 side chain or, on linkers, in order; H or OH if unused. Where no end group is shown, it is not given here. Side-chain parts run from the residue outwards. [ ]: non-standard residue; d: D form. The star is where a group is joined. αMePhe(2-F) = C[C@](N)(Cc1ccccc1F)C(=O)O; γGlu = O=C(O)[C@H](CCC(=O)[*:2])N[*:1]; C14 diacid = O=C(O)CCCCCCCCCCCCC(=O)*; αMeY = C[C@](N)(Cc1ccc(O)cc1)C(=O)O; αMeF = C[C@](N)(Cc1ccccc1)C(=O)O; αMeL = CC(C)C[C@](C)(N)C(=O)O; Orn = NCCC[C@H](N)C(=O)O; AEEA = NCCOCCOCC(=O)O; Aib = CC(C)(N)C(=O)O
QUANTITY_NAME: cAMP Emax (1.0% HSA)
Please don't drop the unit; write it after the number.

{"columns": ["BINDER", "cAMP Emax (1.0% HSA)"],
 "data": [
  ["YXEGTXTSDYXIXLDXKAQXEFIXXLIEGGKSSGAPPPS (Aib2, αMeF(2F)6, Aib11, αMeL13, Orn16, Aib20, D-Glu24, αMeY25; acylated K17, K31 (groups as in name); C-terminal amide)", "91.4%"],
  ["YXEGTXTSDVSIXLDXKAQXEFIXXLIEGGKSSGAPPPS (Aib2, αMeF(2F)6, αMeL13, Orn16, Aib20, D-Glu24, αMeY25; acylated K17, K31 (groups as in name); C-terminal amide)", "104%"],
  ["Y[Aib]EGT[αMePhe(2-F)]TSDV[Aib]I[αMeL]LD[Orn]K([AEEA-AEEA-γGlu-C14 diacid])AQ[Aib]E[αMeF]I[dE][αMeY]LIEGGK([AEEA-AEEA-γGlu-C14 diacid])SSGAPPPS-NH2", "92%"],
  ["YXEGTXTSDXSIXLDXKAQXEFIGXLIEGGKSSGAPPPS (Aib2, αMeF(2F)6, 4Pal10, αMeL13, Orn16, Aib20, αMeY25; acylated K17, K31 (groups as in name); C-terminal amide)", "95.9%"],
  ["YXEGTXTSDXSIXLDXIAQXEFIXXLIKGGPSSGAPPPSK (Aib2, αMeF(2F)6, 4Pal10, αMeL13, Orn16, Aib20, D-Glu24, αMeY25; acylated K28, K40 (groups as in name); C-terminal amide)", "77.6%"]
]}

Query: Supply cAMP Emax (1.0% HSA) value. Item: YXEGTXTSDXGIXLDXKAQXEFIXXLIEGGKSSGAPPPS (Aib2, αMeF(2F)6, 4Pal10, αMeL13, Orn16, Aib20, D-Glu24, αMeY25; acylated K17, K31 (groups as in name); C-terminal amide)
Response: 98.3%

From: patent US20230265151A1
